System: Streptococcus pneumoniae
measurementProtocol: Antibacterial activity against Streptococcus pneumoniae HMC 5041 harboring S81F and S79F mutation in quinolone-resistant determining regions of GyrA and ParC genes respectively by agar dilution method
Assay type: functional

{"compound": "COc1c(N2C[C@@H]3CCCN[C@@H]3C2)c(F)cc2c(=O)c(C(=O)O)cn(C3CC3)c12", "MIC (µg/mL)": 4}
{"compound": "COc1c(N2CC3(CC3)[C@](C)(N)C2)c(F)cc2c(=O)c(C(=O)O)cn([C@@H]3C[C@@H]3F)c12.O", "MIC (µg/mL)": 1}
{"compound": "CO/N=C1\\CN(c2nc3c(cc2F)c(=O)c(C(=O)O)cn3C2CC2)CC1CN (stereo not given)", "MIC (µg/mL)": 0.5}
{"compound": "O=C(O)c1cn(C2CC2)c2cc(N3CCNCC3)c(F)cc2c1=O", "MIC (µg/mL)": 16}
{"compound": "COc1c(N2CCNC(C)C2)c(F)cc2c(=O)c(C(=O)O)cn(C3CC3)c12 (stereo not given)", "MIC (µg/mL)": 4}

---

Test system: Streptococcus pneumoniae
measurementProtocol: Antibacterial activity against azithromycin-resistant Streptococcus pneumoniae […] by agar dilution method
Type: functional
measuredParameter: log10 of MIC90 (log10 of the value in µg/mL)

{"molecule": "C[C@H]1COc2c(N3CCN(C)CC3)c(F)cc3c(=O)c(C(=O)O)cn1c23.C[C@H]1COc2c(N3CCN(C)CC3)c(F)cc3c(=O)c(C(=O)O)cn1c23.O", "log10 of MIC90": 0.30}
{"molecule": "CC[C@H]1OC(=O)[C@H](C)C(=O)[C@H](C)[C@@H](O[C@@H]2O[C@H](C)C[C@H](N(C)C)[C@H]2O)[C@](C)(OC)C[C@@H](C)C(=O)[C@H](C)[C@H]2N(CCCCn3cnc(-c4cccnc4)c3)C(=O)O[C@]12C", "log10 of MIC90": -0.60}
{"molecule": "CO/N=C1\\CN(c2nc3c(cc2F)c(=O)c(C(=O)O)cn3C2CC2)CC1CN (stereo unspecified)", "log10 of MIC90": -1.22}
{"molecule": "COc1c(N2CC3(CC3)[C@](C)(N)C2)c(F)cc2c(=O)c(C(=O)O)cn([C@@H]3C[C@@H]3F)c12.O", "log10 of MIC90": -0.92}
{"molecule": "COc1c(N2CCNC(C)C2)c(F)cc2c(=O)c(C(=O)O)cn(C3CC3)c12 (stereo unspecified)", "log10 of MIC90": -0.30}
{"molecule": "CC1(C)S[C@@H]2[C@H](NC(=O)Cc3ccccc3)C(=O)N2[C@H]1C(=O)O", "log10 of MIC90": 0.60}

---

Tested on: Streptococcus pneumoniae
measurementProtocol: Antibacterial activity against quinolone-resistant Streptococcus pneumoniae […] by agar dilution method
Format: functional
measuredParameter: MIC50

{"compound": "O=C(O)c1cn(C2CC2)c2cc(N3CCNCC3)c(F)cc2c1=O", "reported": "16 µg/mL"}
{"compound": "COc1c(N2C[C@@H]3CCCN[C@@H]3C2)c(F)cc2c(=O)c(C(=O)O)cn(C3CC3)c12", "reported": "4 µg/mL"}
{"compound": "COc1c(N2CCNC(C)C2)c(F)cc2c(=O)c(C(=O)O)cn(C3CC3)c12 (stereo unspecified)", "reported": "8 µg/mL"}
{"compound": "CC[C@H]1OC(=O)[C@H](C)C(=O)[C@H](C)[C@@H](O[C@@H]2O[C@H](C)C[C@H](N(C)C)[C@H]2O)[C@](C)(OC)C[C@@H](C)C(=O)[C@H](C)[C@H]2N(CCCCn3cnc(-c4cccnc4)c3)C(=O)O[C@]12C", "reported": "0.016 µg/mL"}
{"compound": "C[C@H]1COc2c(N3CCN(C)CC3)c(F)cc3c(=O)c(C(=O)O)cn1c23.C[C@H]1COc2c(N3CCN(C)CC3)c(F)cc3c(=O)c(C(=O)O)cn1c23.O", "reported": "16 µg/mL"}
{"compound": "CC1(C)S[C@@H]2[C@H](NC(=O)Cc3ccccc3)C(=O)N2[C@H]1C(=O)O", "reported": "0.5 µg/mL"}

---

Tested on: Streptococcus pneumoniae
measurementProtocol: Antibacterial activity against Streptococcus pneumoniae HMC 1139 harboring S81F mutation in quinolone-resistant determining regions of GyrA gene, S79F, K137N mutation in QRDR of ParC gene and I460V mutation in QRDR of ParE gene by agar dilution method
Format: functional
Flag rule - MIC less than 8 µg/mL flags Met; the remaining entries get Not met.

{"molecule": "COc1c(N2C[C@@H]3CCCN[C@@H]3C2)c(F)cc2c(=O)c(C(=O)O)cn(C3CC3)c12", "assignedCategory": "Met"}
{"molecule": "COc1c(N2CC3(CC3)[C@](C)(N)C2)c(F)cc2c(=O)c(C(=O)O)cn([C@@H]3C[C@@H]3F)c12.O", "assignedCategory": "Met"}
{"molecule": "CO/N=C1\\CN(c2nc3c(cc2F)c(=O)c(C(=O)O)cn3C2CC2)CC1CN (stereo not given)", "assignedCategory": "Met"}
{"molecule": "O=C(O)c1cn(C2CC2)c2cc(N3CCNCC3)c(F)cc2c1=O", "assignedCategory": "Not met"}

---

System: Streptococcus pneumoniae
measurementProtocol: Antibacterial activity against Streptococcus pneumoniae HMC 2536 harboring S81Y mutation in quinolone-resistant determining regions of GyrA gene, S79F, K137N mutation in QRDR of ParC gene and I460V mutation in QRDR of ParE gene by agar dilution method
Format: functional

{"compound": "O=C(O)c1cn(C2CC2)c2cc(N3CCNCC3)c(F)cc2c1=O", "MIC": "16 µg/mL"}
{"compound": "COc1c(N2C[C@@H]3CCCN[C@@H]3C2)c(F)cc2c(=O)c(C(=O)O)cn(C3CC3)c12", "MIC": "4 µg/mL"}
{"compound": "COc1c(N2CCNC(C)C2)c(F)cc2c(=O)c(C(=O)O)cn(C3CC3)c12 (stereo not given)", "MIC": "16 µg/mL"}
{"compound": "CO/N=C1\\CN(c2nc3c(cc2F)c(=O)c(C(=O)O)cn3C2CC2)CC1CN (stereo not given)", "MIC": "0.125 µg/mL"}
{"compound": "COc1c(N2CC3(CC3)[C@](C)(N)C2)c(F)cc2c(=O)c(C(=O)O)cn([C@@H]3C[C@@H]3F)c12.O", "MIC": "1 µg/mL"}

---

System: Streptococcus pneumoniae
measurementProtocol: Antibacterial activity against Streptococcus pneumoniae HMC 1058 harboring S79F, K137N mutation in quinolone-resistant determining regions of ParC gene and 460V mutation in QRDR of ParE gene by agar dilution method
Assay type: functional
The entries below come with measured MIC values attached.

{"compound": "CO/N=C1\\CN(c2nc3c(cc2F)c(=O)c(C(=O)O)cn3C2CC2)CC1CN (stereo not given)", "MIC / µg/mL": 0.125}
{"compound": "COc1c(N2CCNC(C)C2)c(F)cc2c(=O)c(C(=O)O)cn(C3CC3)c12 (stereo not given)", "MIC / µg/mL": 2}
{"compound": "COc1c(N2C[C@@H]3CCCN[C@@H]3C2)c(F)cc2c(=O)c(C(=O)O)cn(C3CC3)c12", "MIC / µg/mL": 0.5}
{"compound": "COc1c(N2CC3(CC3)[C@](C)(N)C2)c(F)cc2c(=O)c(C(=O)O)cn([C@@H]3C[C@@H]3F)c12.O", "MIC / µg/mL": 0.5}
{"compound": "O=C(O)c1cn(C2CC2)c2cc(N3CCNCC3)c(F)cc2c1=O", "MIC / µg/mL": 16}

---

Test system: Streptococcus pneumoniae
measurementProtocol: Antibacterial activity against penicillin-, macrolide-susceptible and quinolone-resistant Streptococcus pneumoniae HMC 1074 harboring S81F mutation in quinolone-resistant determining regions of GyrA gene, S79F mutation in QRDR of ParC gene and I460V mutation in QRDR of ParE gene after 50 passages by broth microdilution method
Assay type: functional
measuredParameter: MIC (µg/mL)

{"compound": "COc1c(N2CC3(CC3)[C@](C)(N)C2)c(F)cc2c(=O)c(C(=O)O)cn([C@@H]3C[C@@H]3F)c12.O", "targetOfAssay": "Streptococcus pneumoniae", "measuredParameter": "MIC", "reported": 1}
{"compound": "COc1c(N2CCNC(C)C2)c(F)cc2c(=O)c(C(=O)O)cn(C3CC3)c12 (centres undefined)", "targetOfAssay": "Streptococcus pneumoniae", "measuredParameter": "MIC", "reported": 8}
{"compound": "COc1c(N2C[C@@H]3CCCN[C@@H]3C2)c(F)cc2c(=O)c(C(=O)O)cn(C3CC3)c12", "targetOfAssay": "Streptococcus pneumoniae", "measuredParameter": "MIC", "reported": 8}
{"compound": "CC[C@H]1OC(=O)[C@H](C)[C@@H](O[C@H]2C[C@@](C)(OC)[C@@H](O)[C@H](C)O2)[C@H](C)[C@@H](O[C@@H]2O[C@H](C)C[C@H](N(C)C)[C@H]2O)[C@](C)(O)C[C@@H](C)CN(C)[C@H](C)[C@@H](O)[C@]1(C)O", "targetOfAssay": "Streptococcus pneumoniae", "measuredParameter": "MIC", "reported": 0.03}
